Attribution: patent US11178868B2

system: Echinochloa crus-galli; test: Post-emergence herbicidal effect; type: in vivo; settings: 20 g a.i./ha, assessed visually after about 3 weeks
Would you mind telling me the reported Herbicidal effect against [%] ECHCG of each entry?
Lab book: enter the figure in %, no units written.

# molecule CC#Cc1cc(C)c(C2=C(O)C3(CCCC(OCC)C3)NC2=O)c(C)c1 (centres unmarked) [Example D2] ; its Herbicidal effect against [%] ECHCG = 90

# molecule C#Cc1cc(CC)c(C2=C(O)C3(CCCC(OCCOC)C3)NC2=O)c(CC)c1 (centres unmarked) ; its Herbicidal effect against [%] ECHCG = 90

# molecule CC#Cc1cc(C)c(C2=C(OC(=O)OC)C3(CCCC(OCCOC)C3)NC2=O)c(C)c1 (centres unmarked) ; its Herbicidal effect against [%] ECHCG = 100

# molecule CC#Cc1cc(CC)c(C2=C(OC(=O)C(C)C)C3(CCCC(OCCOC)C3)NC2=O)c(CC)c1 (centres unmarked) ; its Herbicidal effect against [%] ECHCG = 100

# molecule CC#Cc1cc(C)c(C2=C(OC(=O)OCC)C3(CCCC(OCCOC)C3)NC2=O)c(CC)c1 (centres unmarked) ; its Herbicidal effect against [%] ECHCG = 100

# molecule CC#Cc1cc(C)c(C2=C(O)C3(CCCC(OCCOC)C3)NC2=O)c(CC)c1 (centres unmarked) ; its Herbicidal effect against [%] ECHCG = 100

# molecule CC#Cc1cc(CC)c(C2=C(O)C3(CCCC(OCCOC)C3)NC2=O)c(CC)c1 (centres unmarked) ; its Herbicidal effect against [%] ECHCG = 100

# molecule CC#Cc1cc(C)c(C2=C(O)C3(CCCC(OCCOC)C3)NC2=O)c(C)c1 (centres unmarked) ; its Herbicidal effect against [%] ECHCG = 100

---

tested on: Alopecurus myosuroides; experiment: Post-emergence herbicidal effect; type: in vivo; settings: 80 g a.i./ha, assessed visually after about 3 weeks
Would you mind telling me the reported Herbicidal effect against [%] ALOMY of each entry?
Lab book: enter the figure in %, no units written.

# molecule CC#Cc1cc(CC)c(C2=C(OC(=O)OCC)C3(CCCC(OCC)C3)NC2=O)c(CC)c1 (single isomer, unassigned) ; its Herbicidal effect against [%] ALOMY = 100

# molecule CC#Cc1cc(CC)c(C2=C(OC(=O)C(C)C)C3(CCCC(OCCOC)C3)NC2=O)c(CC)c1 (centres unmarked) ; its Herbicidal effect against [%] ALOMY = 100

# molecule CC#Cc1cc(C)c(C2=C(O)C3(CCCC(OCCOC)C3)NC2=O)c(CC)c1 (centres unmarked) ; its Herbicidal effect against [%] ALOMY = 100

# molecule C#Cc1cc(CC)c(C2=C(O)C3(CCCC(OCCOC)C3)NC2=O)c(CC)c1 (centres unmarked) ; its Herbicidal effect against [%] ALOMY = 90

# molecule CC#Cc1cc(CC)c(C2=C(O)C3(CCCC(OCC)C3)NC2=O)c(CC)c1 (centres unmarked) [Example D1] ; its Herbicidal effect against [%] ALOMY = 100

---

test system: Lolium multiflorum; assay: Post-emergence herbicidal effect; assay type: in vivo; details: 80 g a.i./ha, assessed visually after about 3 weeks
Would you mind telling me the reported Herbicidal effect against [%] LOLMU of each entry?
Lab book: enter the figure in %, no units written.

Record CC#Cc1cc(C)c(C2=C(OC(=O)OCC)C3(CCCC(OCCOC)C3)NC2=O)c(C)c1 (centres unmarked) / Lolium multiflorum, Herbicidal effect against [%] LOLMU recorded as 100

Record CC#Cc1cc(CC)c(C2=C(O)C3(CCCC(OCC)C3)NC2=O)c(CC)c1 (centres unmarked) [Example D1] / Lolium multiflorum, Herbicidal effect against [%] LOLMU recorded as 90

Record CC#Cc1cc(C)c(C2=C(O)C3(CCCC(OCCC)C3)NC2=O)c(C)c1 (centres unmarked) / Lolium multiflorum, Herbicidal effect against [%] LOLMU recorded as 100

Record CC#Cc1ccc(C2=C(O)C3(CCCC(OCCOC)C3)NC2=O)c(CC)c1 (centres unmarked) / Lolium multiflorum, Herbicidal effect against [%] LOLMU recorded as 100

Record CC#Cc1cc(C)c(C2=C(O)C3(CCCC(OCC)C3)NC2=O)c(C)c1 (centres unmarked) [Example D2] / Lolium multiflorum, Herbicidal effect against [%] LOLMU recorded as 100
